This collection of values is drawn from ChEMBL document CHEMBL3608229.

Test system: Staphylococcus epidermidis
Test: Antibacterial activity against methicillin-susceptible Staphylococcus epidermidis ATCC 12228 after 18 hrs by agar dilution method
Type: functional
Conditions: ATCC 12228, 18 h
Item-by-item account of MIC
RECORDED ENDPOINT: MIC

COC(=O)c1c(OC)cc2cc3c(c(O)c2c1C)C(=O)O[C@@H]3[C@@]1(O)[C@H](O)C(OC)=CC(=O)[C@@H]1OC = > 64 µg/mL
C[C@H]1COc2c(N3CCN(C)CC3)c(F)cc3c(=O)c(C(=O)O)cn1c23.C[C@H]1COc2c(N3CCN(C)CC3)c(F)cc3c(=O)c(C(=O)O)cn1c23.O [LEVOFLOXACIN] = 0.25 µg/mL
COC(=O)c1c(OC)cc2cc3c(c(O)c2c1C)C(=O)O[C@H]3[C@@]1(O)[C@H](O)C(OC)=CC(=O)[C@H]1OC = > 64 µg/mL
COC(=O)c1c(OC)cc2cc3c(c(O)c2c1C)C(=O)[C@@]1(O)C(OC)=CC(=O)[C@H](OC)[C@@]1(O)C3=O = > 64 µg/mL
COC(=O)c1c(OC)cc2cc3c(c(O)c2c1C)C(=O)O[C@@H]3[C@@]1(O)[C@H](O)C(OC)=CC(=O)[C@@H]1O = > 64 µg/mL
